test system: BE(2)-C; assay: Antiproliferative activity against human BE2C cells assessed as reduction in cell growth incubated for 96 hrs by MTT assay; format: functional, cell-based
pIC50: −log10 of the molar value.
// values below are reported pIC50

# compound, pIC50
records = [
    ("NC(=O)C(c1ccccc1)c1c(-c2ccc3ccccc3c2)[nH]c2ccccc12 (stereo not given)", 5.07),
    ("CC1=C(/C=C/C(C)=C/C=C/C(C)=C/C(=O)O)C(C)(C)CCC1", 5.17),
    ("COc1ccc(-c2[nH]c3ccccc3c2C(C(N)=O)c2ccccc2OC)cc1 (stereo not given)", 5.13),
    ("NC(=O)C(c1ccc(Cl)cc1)c1c(-c2ccccc2)[nH]c2ccccc12 (stereo not given)", 6.00),
    ("COc1ccc(C(C(N)=O)c2c(-c3ccc4ccccc4c3)[nH]c3ccccc23)cc1 (stereo not given)", 6.33),
]

Values compiled from ChEMBL document CHEMBL5579813.
